ASSAY NOTES: Therapeutic index, ratio of CyD50 for african green monkey Vero cells to ED50 for 10^-2 MOI HSV2
Assay type: cell-based
REPORTED CONDITIONS: read-out: TI
QUANTITY: selectivity ratio
Respond with the number and no other words.

Query string: Which selectivity ratio is listed for COc1cc(-c2oc3c(OC)c(OC)cc(O)c3c(=O)c2OC)ccc1O ?
Result string: 2

====

Tested on: Vesicular stomatitis virus
ASSAY NOTES: Antiviral activity against 10^-3 MOI VSV infected in african green monkey Vero cells assessed as inhibition of virus-induced cytopathic effect
Type: functional
REPORTED CONDITIONS: read-out: ED50 (the source's name)
QUANTITY: EC50

Query string: Which EC50 is listed for COc1cc(-c2oc3c(OC)c(OC)cc(O)c3c(=O)c2OC)ccc1O ?
Result string: 38 µM

====

ASSAY NOTES: Therapeutic index, ratio of CyD50 for african green monkey Vero cells to ED50 for 10^-3 MOI VSV
Type: cell-based
REPORTED CONDITIONS: read-out: TI
QUANTITY: selectivity ratio
Lab note: write the figure by itself, no unit.

Query string: I am curious: what selectivity ratio value has been reported for COc1cc(-c2oc3c(OC)c(OC)cc(O)c3c(=O)c2OC)ccc1O ?
Result string: 5.2

====

ASSAY NOTES: Therapeutic index, ratio of CyD50 for african green monkey Vero cells to ED50 for 10^-2 MOI Human adenovirus 2
Assay type: cell-based
REPORTED CONDITIONS: read-out: TI
QUANTITY: selectivity ratio
Please give only the number in your answer, with no unit.

Query string: For the molecule COc1cc(-c2oc3c(OC)c(OC)cc(O)c3c(=O)c2OC)ccc1O , what selectivity ratio is on record?
Result string: 20

====

ASSAY NOTES: Therapeutic index, ratio of CyD50 for african green monkey Vero cells to ED50 for 10^-2 MOI Poliovirus 2
Assay type: cell-based
REPORTED CONDITIONS: read-out: TI
QUANTITY: selectivity ratio

Query string: Endpoint output: selectivity ratio of COc1cc(-c2oc3c(OC)c(OC)cc(O)c3c(=O)c2OC)ccc1O . Value?
Result string: 50

====

ASSAY NOTES: Therapeutic index, ratio of CyD50 for african green monkey Vero cells to ED50 for 10^-3 MOI HSV1
Assay type: cell-based
REPORTED CONDITIONS: read-out: TI
QUANTITY: selectivity ratio
Provide a numeric answer; units are not to be included.

Query string: I have this compound here, COc1cc(-c2oc3c(OC)c(OC)cc(O)c3c(=O)c2OC)ccc1O , and I need its recorded selectivity ratio.
Result string: 4.6

====

Tested on: Human alphaherpesvirus 1
ASSAY NOTES: Antiviral activity against 10^-3 MOI HSV1 infected in african green monkey Vero cells assessed as inhibition of virus-induced cytopathic effect
Type: functional
REPORTED CONDITIONS: Human alphaherpesvirus 1, Vero; read-out: ED50 (the source's name)
QUANTITY: EC50 (µM)
Output spec: scalar in µM, unitless text.

Query string: Please give the measured EC50 for this compound: COc1cc(-c2oc3c(OC)c(OC)cc(O)c3c(=O)c2OC)ccc1O
Result string: 44

====

ASSAY NOTES: Therapeutic index, ratio of CyD50 for african green monkey Vero cells to ED50 for 10^-3 MOI HSV2
Type: cell-based
REPORTED CONDITIONS: read-out: TI
QUANTITY: selectivity ratio
// no unit string in output, number only

Query string: Please report the recorded selectivity ratio for COc1cc(-c2oc3c(OC)c(OC)cc(O)c3c(=O)c2OC)ccc1O .
Result string: 14.4
